Cited source for all entries: patent US8653041B2

# Tested on: Acinetobacter baumannii
# TEST METHOD NOTES: MIC, CLSI broth microdilution, Acinetobacter baumannii panel
# Format: cell-based
# PROTOCOL CONDITIONS: Acinetobacter baumannii, A. baumannii clinical strain 15 (resistant clinical isolate); read-out: MIC
ENDPOINT: MIC

Illustrative cases are given below, each with its answer.
NC[C@@H]1O[C@H](O[C@H]2[C@@H](O)[C@H](O[C@@H]3[C@@H](O)[C@H](NC(=O)[C@@H](O)CN)C[C@H](N)[C@H]3O[C@H]3O[C@H](CNCCO)[C@@H](O)C[C@H]3N)O[C@@H]2CO)[C@H](N)[C@@H](O)[C@@H]1O ≤ 1 µg/mL
NCC[C@H](O)C(=O)N[C@@H]1C[C@H](N)[C@@H](O[C@H]2O[C@H](CN)[C@@H](O)[C@H](O)[C@H]2O)[C@H](O)[C@H]1O[C@H]1O[C@H](CO)[C@@H](O)[C@H](N)[C@H]1O ≥ 32 µg/mL
NCC[C@H](O)C(=O)N[C@@H]1C[C@H](N)[C@@H](O[C@H]2O[C@H](CNCCO)[C@@H](O)C[C@H]2N)[C@H](O[C@@H]2O[C@H](CO)[C@@H](O[C@H]3O[C@@H](CN)[C@@H](O)[C@H](O)[C@H]3N)[C@H]2O)[C@H]1O ≤ 1 µg/mL

Please look at the following compound next.
Task item: // MIC lookup, key: NC[C@H]1O[C@H](O[C@H]2[C@H](O)[C@@H](O[C@H]3O[C@H](CO)[C@@H](O)[C@H](N)[C@H]3O)[C@H](N)C[C@@H]2N)[C@H](N)C[C@@H]1O
Reply: ≤ 1 µg/mL

* * *

# Tested on: Acinetobacter baumannii
# TEST METHOD NOTES: MIC, CLSI broth microdilution, Acinetobacter baumannii panel
# Type: cell-based
# PROTOCOL CONDITIONS: Acinetobacter baumannii, A. baumannii clinical strain 3 (resistant clinical isolate); read-out: MIC
ENDPOINT: MIC

COMPOUND	MIC
NCC[C@H](O)C(=O)N[C@@H]1C[C@H](N)[C@@H](O[C@H]2O[C@H](CN)[C@@H](O)[C@H](O)[C@H]2O)[C@H](O)[C@H]1O[C@H]1O[C@H](CO)[C@@H](O)[C@H](N)[C@H]1O [AMK, amikacin]	8 to 16 µg/mL
NCC[C@H](O)C(=O)N[C@@H]1C[C@H](N)[C@@H](O[C@H]2O[C@H](CNCCO)[C@@H](O)C[C@H]2N)[C@H](O[C@@H]2O[C@H](CO)[C@@H](O[C@H]3O[C@@H](CN)[C@@H](O)[C@H](O)[C@H]3N)[C@H]2O)[C@H]1O [Compound 18]	1 to 8 µg/mL
NC[C@H]1O[C@H](O[C@H]2[C@H](O)[C@@H](O[C@H]3O[C@H](CO)[C@@H](O)[C@H](N)[C@H]3O)[C@H](N)C[C@@H]2N)[C@H](N)C[C@@H]1O [TOB, tobramycin]	≥ 32 µg/mL

Please look at the following compound next.
Task item: // MIC lookup, key: NC[C@@H]1O[C@H](O[C@H]2[C@@H](O)[C@H](O[C@@H]3[C@@H](O)[C@H](NC(=O)[C@@H](O)CN)C[C@H](N)[C@H]3O[C@H]3O[C@H](CNCCO)[C@@H](O)C[C@H]3N)O[C@@H]2CO)[C@H](N)[C@@H](O)[C@@H]1O [Compound 20]
Reply: ≤ 1 µg/mL

* * *

# Tested on: Pseudomonas aeruginosa
# TEST METHOD NOTES: MIC, CLSI broth microdilution, Pseudomonas aeruginosa panel
# Type: cell-based
# PROTOCOL CONDITIONS: Pseudomonas aeruginosa, P. aeruginosa clinical strain 19 (resistant clinical isolate); read-out: MIC
ENDPOINT: MIC

Illustrative cases are given below, each with its answer.
NC[C@@H]1O[C@H](O[C@H]2[C@@H](O)[C@H](O[C@@H]3[C@@H](O)[C@H](NC(=O)[C@@H](O)CN)C[C@H](N)[C@H]3O[C@H]3O[C@H](CNCCO)[C@@H](O)C[C@H]3N)O[C@@H]2CO)[C@H](N)[C@@H](O)[C@@H]1O 16 to 32 µg/mL
NCC[C@H](O)C(=O)N[C@@H]1C[C@H](N)[C@@H](O[C@H]2O[C@H](CNCCO)[C@@H](O)C[C@H]2N)[C@H](O[C@@H]2O[C@H](CO)[C@@H](O[C@H]3O[C@@H](CN)[C@@H](O)[C@H](O)[C@H]3N)[C@H]2O)[C@H]1O 16 to 32 µg/mL
NC[C@H]1O[C@H](O[C@H]2[C@H](O)[C@@H](O[C@H]3O[C@H](CO)[C@@H](O)[C@H](N)[C@H]3O)[C@H](N)C[C@@H]2N)[C@H](N)C[C@@H]1O ≥ 32 µg/mL

Please look at the following compound next.
Task item: // MIC lookup, key: NCC[C@H](O)C(=O)N[C@@H]1C[C@H](N)[C@@H](O[C@H]2O[C@H](CN)[C@@H](O)[C@H](O)[C@H]2O)[C@H](O)[C@H]1O[C@H]1O[C@H](CO)[C@@H](O)[C@H](N)[C@H]1O
Reply: ≥ 32 µg/mL

* * *

# Test system: Acinetobacter baumannii
# TEST METHOD NOTES: MIC, CLSI broth microdilution, Acinetobacter baumannii panel
# Assay type: cell-based
# PROTOCOL CONDITIONS: Acinetobacter baumannii, A. baumannii clinical strain 5 (resistant clinical isolate); read-out: MIC
ENDPOINT: MIC

NC[C@H]1O[C@H](O[C@H]2[C@H](O)[C@@H](O[C@H]3O[C@H](CO)[C@@H](O)[C@H](N)[C@H]3O)[C@H](N)C[C@@H]2N)[C@H](N)C[C@@H]1O ≥ 32 µg/mL
NCC[C@H](O)C(=O)N[C@@H]1C[C@H](N)[C@@H](O[C@H]2O[C@H](CNCCO)[C@@H](O)C[C@H]2N)[C@H](O[C@@H]2O[C@H](CO)[C@@H](O[C@H]3O[C@@H](CN)[C@@H](O)[C@H](O)[C@H]3N)[C@H]2O)[C@H]1O 1 to 8 µg/mL
NCC[C@H](O)C(=O)N[C@@H]1C[C@H](N)[C@@H](O[C@H]2O[C@H](CN)[C@@H](O)[C@H](O)[C@H]2O)[C@H](O)[C@H]1O[C@H]1O[C@H](CO)[C@@H](O)[C@H](N)[C@H]1O ≥ 32 µg/mL

Please look at the following compound next.
Task item: // MIC lookup, key: NC[C@@H]1O[C@H](O[C@H]2[C@@H](O)[C@H](O[C@@H]3[C@@H](O)[C@H](NC(=O)[C@@H](O)CN)C[C@H](N)[C@H]3O[C@H]3O[C@H](CNCCO)[C@@H](O)C[C@H]3N)O[C@@H]2CO)[C@H](N)[C@@H](O)[C@@H]1O
Reply: ≤ 1 µg/mL

* * *

# Test system: Acinetobacter baumannii
# TEST METHOD NOTES: MIC, CLSI broth microdilution, Acinetobacter baumannii panel
# Format: cell-based
# PROTOCOL CONDITIONS: Acinetobacter baumannii, A. baumannii clinical strain 24 (resistant clinical isolate); read-out: MIC
ENDPOINT: MIC

Illustrative cases are given below, each with its answer.
NCC[C@H](O)C(=O)N[C@@H]1C[C@H](N)[C@@H](O[C@H]2O[C@H](CN)[C@@H](O)[C@H](O)[C@H]2O)[C@H](O)[C@H]1O[C@H]1O[C@H](CO)[C@@H](O)[C@H](N)[C@H]1O ≥ 32 µg/mL
NCC[C@H](O)C(=O)N[C@@H]1C[C@H](N)[C@@H](O[C@H]2O[C@H](CNCCO)[C@@H](O)C[C@H]2N)[C@H](O[C@@H]2O[C@H](CO)[C@@H](O[C@H]3O[C@@H](CN)[C@@H](O)[C@H](O)[C@H]3N)[C@H]2O)[C@H]1O 16 to 32 µg/mL
NC[C@H]1O[C@H](O[C@H]2[C@H](O)[C@@H](O[C@H]3O[C@H](CO)[C@@H](O)[C@H](N)[C@H]3O)[C@H](N)C[C@@H]2N)[C@H](N)C[C@@H]1O ≥ 32 µg/mL

Please look at the following molecule next.
Task item: # get_value(readout= MIC, system= Acinetobacter baumannii) for NC[C@@H]1O[C@H](O[C@H]2[C@@H](O)[C@H](O[C@@H]3[C@@H](O)[C@H](NC(=O)[C@@H](O)CN)C[C@H](N)[C@H]3O[C@H]3O[C@H](CNCCO)[C@@H](O)C[C@H]3N)O[C@@H]2CO)[C@H](N)[C@@H](O)[C@@H]1O
Reply: 1 to 8 µg/mL

* * *

# System: Acinetobacter baumannii
# TEST METHOD NOTES: MIC, CLSI broth microdilution, Acinetobacter baumannii panel
# Assay type: cell-based
# PROTOCOL CONDITIONS: Acinetobacter baumannii, A. baumannii clinical strain 6 (resistant clinical isolate); read-out: MIC
ENDPOINT: MIC

Task item: // MIC lookup, key: NC[C@@H]1O[C@H](O[C@H]2[C@@H](O)[C@H](O[C@@H]3[C@@H](O)[C@H](NC(=O)[C@@H](O)CN)C[C@H](N)[C@H]3O[C@H]3O[C@H](CNCCO)[C@@H](O)C[C@H]3N)O[C@@H]2CO)[C@H](N)[C@@H](O)[C@@H]1O
Reply: 1 to 8 µg/mL

Task item: // MIC lookup, key: NC[C@H]1O[C@H](O[C@H]2[C@H](O)[C@@H](O[C@H]3O[C@H](CO)[C@@H](O)[C@H](N)[C@H]3O)[C@H](N)C[C@@H]2N)[C@H](N)C[C@@H]1O
Reply: ≥ 32 µg/mL

Task item: // MIC lookup, key: NCC[C@H](O)C(=O)N[C@@H]1C[C@H](N)[C@@H](O[C@H]2O[C@H](CN)[C@@H](O)[C@H](O)[C@H]2O)[C@H](O)[C@H]1O[C@H]1O[C@H](CO)[C@@H](O)[C@H](N)[C@H]1O
Reply: ≥ 32 µg/mL

Task item: // MIC lookup, key: NCC[C@H](O)C(=O)N[C@@H]1C[C@H](N)[C@@H](O[C@H]2O[C@H](CNCCO)[C@@H](O)C[C@H]2N)[C@H](O[C@@H]2O[C@H](CO)[C@@H](O[C@H]3O[C@@H](CN)[C@@H](O)[C@H](O)[C@H]3N)[C@H]2O)[C@H]1O
Reply: 1 to 8 µg/mL
